Some compounds, each annotated with its measured Plant response rating, Wild oats.
- Tested on: wild oat (Avena fatua)
- ASSAY COMMENT: Test B pre-/postemergence
- Type: in vivo
- MEASUREMENT PARAMETERS: Rate 250 g/ha, Postemergence
Hey, just send me the number, nothing else.

[
  {
    "SMI": "Cc1cnc(-c2ccc(C(F)(F)F)cc2)nc1Cc1cccc(C(F)(F)F)c1",
    "QUANTITY KIND": "Plant response rating, Wild oats",
    "REPORTED MEASUREMENT": 7
  },
  {
    "SMI": "Cc1cnc(-n2ccc(C(F)(F)C(F)(F)F)n2)nc1C(=O)c1cccc(C(F)(F)F)c1",
    "QUANTITY KIND": "Plant response rating, Wild oats",
    "REPORTED MEASUREMENT": 2
  },
  {
    "SMI": "Cc1cnc(-c2ccc(Cl)cc2)nc1Cn1ccc(C(F)(F)F)n1",
    "QUANTITY KIND": "Plant response rating, Wild oats",
    "REPORTED MEASUREMENT": 3
  },
  {
    "SMI": "Cc1cnc(-n2ccc(C(F)(F)C(F)(F)F)n2)nc1C(=O)c1cccc(OC(F)(F)F)c1",
    "QUANTITY KIND": "Plant response rating, Wild oats",
    "REPORTED MEASUREMENT": 1
  },
  {
    "SMI": "Cc1cnc(-c2ccc(C(F)(F)F)cc2)nc1C(=O)c1cccc(OC(F)(F)F)c1",
    "QUANTITY KIND": "Plant response rating, Wild oats",
    "REPORTED MEASUREMENT": 3
  },
  {
    "SMI": "Cc1cnc(-c2ccc(C(F)(F)F)cc2)nc1Cn1cnc(C(F)(F)F)c1",
    "QUANTITY KIND": "Plant response rating, Wild oats",
    "REPORTED MEASUREMENT": 2
  }
]

Query: I'd like to know its Plant response rating, Wild oats. The compound in question is `Cc1cnc(-c2ccc(Cl)cc2F)nc1Cc1cccc(C(F)(F)F)c1`
Reply: 4

Query: Also `Cc1cnc(-c2cccc(C(F)(F)F)c2)nc1Cc1cccc(C#N)c1` ?
Reply: 1

---

- Tested on: broadleaf signalgrass (Brachiaria decumbens)
- ASSAY COMMENT: Test B pre-/postemergence
- Format: in vivo
- MEASUREMENT PARAMETERS: Rate 250 g/ha, Postemergence
Entries and their Plant response rating, B. signalgrass values follow.
// print number alone

Reference set (5 entries):
[
  {
    "SMI": "Cc1cnc(-n2cnc(C(F)(F)F)c2)nc1C(=O)c1cccc(OC(F)(F)F)c1",
    "REPORTED MEASUREMENT": 4
  },
  {
    "SMI": "Cc1cnc(-c2ccc(C(F)(F)F)cc2)nc1C(=O)c1ccc(C(F)(F)F)cc1",
    "REPORTED MEASUREMENT": 1
  },
  {
    "SMI": "Cc1cnc(-n2cnc(C(F)(F)F)n2)nc1Cn1ccc(C(F)(F)F)n1",
    "REPORTED MEASUREMENT": 9
  },
  {
    "SMI": "Cc1cnc(-n2cnc(C(F)(F)F)c2)nc1Cc1cccc(C(F)(F)F)c1",
    "REPORTED MEASUREMENT": 5
  },
  {
    "SMI": "Cc1cnc(-c2ccc(Cl)cc2F)nc1Cc1cccc(C#N)c1",
    "REPORTED MEASUREMENT": 1
  }
]

Query: Checklist item: Plant response rating, B. signalgrass tested on broadleaf signalgrass (Brachiaria decumbens), entry `O=C(c1cccc(C(F)(F)F)c1)c1ccnc(-c2ccc(F)cc2F)n1` , value?
Reply: 0

Query: Same for `Cc1cnc(-c2ccc(Cl)c(Cl)c2)nc1Cc1cccc(C(F)(F)F)c1`
Reply: 5

Query: What would you report for `COc1cnc(-c2ccc(C(F)(F)F)cc2)nc1Cc1cccc(C(F)(F)F)c1` ?
Reply: 9

Query: Record: `O=C(c1cccc(C(F)(F)F)c1)c1ccnc(-n2ccc(C(F)(F)F)n2)n1`
Reply: 1

---

- Tested on: blackgrass (Alopecurus myosuroides)
- ASSAY COMMENT: Test B pre-/postemergence
- Format: in vivo
- MEASUREMENT PARAMETERS: Rate 500 g/ha, Preemergence
Recorded Plant response rating, Blackgrass by entry
Respond using a number only.

[
  {
    "SMI": "Cc1cnc(-c2ccc(OC(F)(F)F)cc2)nc1Cc1cccc(C(F)(F)F)c1",
    "REPORTED MEASUREMENT": 4
  },
  {
    "SMI": "Cc1cnc(-c2ccc(C(F)(F)F)cc2)nc1Cn1ccc(C(F)(F)F)n1",
    "REPORTED MEASUREMENT": 10
  },
  {
    "SMI": "Cc1cnc(-n2ccc(C(F)(F)C(F)(F)F)n2)nc1C(=O)c1cccc(C(F)(F)F)c1",
    "REPORTED MEASUREMENT": 7
  }
]

Query: Which Plant response rating, Blackgrass value belongs to `Cc1cnc(-c2ccc(C(F)(F)F)cc2)nc1Cn1nc(C(F)(F)F)cc1C` ?
Reply: 9

---

- Tested on: redroot pigweed (Amaranthus retroflexus)
- ASSAY COMMENT: Test D
- Type: in vivo
- MEASUREMENT PARAMETERS: PREEMERGENCE, Rate 62 g/ha
In this section, each of the molecules is paired with its reported Plant response rating, Redroot pigweed.

See these solved cases before continuing.
[
  {
    "SMI": "Cc1cnc(-n2ccc(C(F)(F)F)n2)nc1Cn1ccc(C(F)(F)F)n1",
    "REPORTED MEASUREMENT": 90
  },
  {
    "SMI": "CCc1cnc(-c2ccc(C(F)(F)F)cc2)nc1Cc1cccc(C(F)(F)F)c1",
    "REPORTED MEASUREMENT": 60
  },
  {
    "SMI": "CCc1cnc(-n2ccc(C(F)(F)F)n2)nc1Cc1cccc(C(F)(F)F)c1",
    "REPORTED MEASUREMENT": 70
  }
]

Query: # value lookup — system redroot pigweed (Amaranthus retroflexus), readout Plant response rating, Redroot pigweed, item `Cc1cnc(-c2ccc(C(F)(F)F)cc2)nc1Cc1cccc(C(F)(F)F)c1`
Reply: 70

---

molecules and their reported Plant response rating, Wheat
- Tested on: wheat (Triticum aestivum)
- ASSAY COMMENT: Test B pre-/postemergence
- Assay type: in vivo
- MEASUREMENT PARAMETERS: Rate 250 g/ha, Postemergence
// return just the number, without any unit appended

[
  {
    "SMI": "Cc1cnc(-c2ccc(C(F)(F)F)cc2)nc1C(=O)c1ccc(C(F)(F)F)cc1",
    "REPORTED MEASUREMENT": 1
  }
]

Query: What measured Plant response rating, Wheat goes with `Cc1cnc(-n2ccc(C(F)(F)F)n2)nc1Cn1ccc(C(F)(F)F)n1` ?
Reply: 7

Query: Subsequent entry: `CCc1cnc(-n2cnc(C(F)(F)F)n2)nc1Cc1cccc(OC(F)(F)F)c1`
Reply: 4

---

- Tested on: crabgrass (Digitaria sanguinalis)
- ASSAY COMMENT: Test B pre-/postemergence
- Type: in vivo
- Set-up: key: 0 is no effect; 10 is complete control
- MEASUREMENT PARAMETERS: Rate 125 g/ha, Preemergence
QUANTITY KIND: Crabgrass plant response rating
Just the number, please.

Guide cases for Crabgrass plant response rating, answers given:
[
  {
    "MOLECULE": "COC(=O)C(c1cccc(C(F)(F)F)c1)c1nc(-c2ccc(C(F)(F)F)cc2)ncc1C (racemic)",
    "SYSTEM NAME": "crabgrass (Digitaria sanguinalis)",
    "Crabgrass plant response rating": 0
  },
  {
    "MOLECULE": "Cc1cnc(-c2ccc(C(F)(F)F)cc2)nc1C(C#N)c1cccc(C(F)(F)F)c1 (racemic)",
    "SYSTEM NAME": "crabgrass (Digitaria sanguinalis)",
    "Crabgrass plant response rating": 8
  },
  {
    "MOLECULE": "CCc1cnc(-n2ccc(C(F)(F)F)n2)nc1Cc1cccc(C(F)(F)F)c1",
    "SYSTEM NAME": "crabgrass (Digitaria sanguinalis)",
    "Crabgrass plant response rating": 9
  },
  {
    "MOLECULE": "Cc1cnc(-c2ccc(C(F)(F)F)cc2)nc1Cc1cccc(OC(F)(F)F)c1",
    "SYSTEM NAME": "crabgrass (Digitaria sanguinalis)",
    "Crabgrass plant response rating": 10
  },
  {
    "MOLECULE": "Cc1cnc(-c2ccccc2)nc1Cn1ccc(C(F)(F)F)n1",
    "SYSTEM NAME": "crabgrass (Digitaria sanguinalis)",
    "Crabgrass plant response rating": 0
  },
  {
    "MOLECULE": "Cc1cnc(-c2ccc(C(F)(F)F)cc2)nc1Cn1cc(I)cn1",
    "SYSTEM NAME": "crabgrass (Digitaria sanguinalis)",
    "Crabgrass plant response rating": 4
  },
  {
    "MOLECULE": "Cc1cnc(-c2ccc(F)cc2F)nc1Cc1cccc(C(F)(F)F)c1",
    "SYSTEM NAME": "crabgrass (Digitaria sanguinalis)",
    "Crabgrass plant response rating": 4
  },
  {
    "MOLECULE": "Cc1cnc(-c2ccc(Cl)cc2)nc1Cc1cccc(C#N)c1",
    "SYSTEM NAME": "crabgrass (Digitaria sanguinalis)",
    "Crabgrass plant response rating": 0
  }
]

Query: // query Crabgrass plant response rating value for entry `COc1cnc(-c2ccc(C(F)(F)F)cc2)nc1Cc1cccc(C(F)(F)F)c1`
Reply: 10

Query: Here is the next molecule: `Cc1cnc(-n2ccc(C(F)(F)F)n2)nc1Cc1cccc(OC(F)(F)F)c1`
Reply: 10

These measurements were taken from patent US6525001B1.
